# System: SW-620 colon
# PROTOCOL NOTES: NCI tumour cell line growth inhibition, 48 h
Give GI50 for every item shown.

Requested read-out: GI50. Entry: CC(=O)[CH-]C(C)=O.CC(=O)[CH-]C(C)=O.CC(=O)[CH-]C(C)=O.[Cl-].[Hf+4]
> 100 µM

Query: GI50; subject: COc1cc(-c2ccc(-[n+]3nc(-c4ccc([N+](=O)[O-])cc4)nn3-c3ccc([N+](=O)[O-])cc3)c(OC)c2)ccc1-[n+]1nc(-c2ccc([N+](=O)[O-])cc2)nn1-c1ccc([N+](=O)[O-])cc1
2.99 µM

GI50 lookup needed for O=S(=O)(NCCNc1cc(-c2cn(-c3ccccc3)nc2-c2cccc(O)c2)ccn1)c1ccc(F)cc1 , thanks.
3.52 µM

---

# System: SK-MEL-2 melanoma
# PROTOCOL NOTES: NCI tumour cell line growth inhibition, 48 h
VALUE KIND: TGI

Need TGI of COc1ccc2c(c1)CC1NC2Cc2ccccc21 (stereo not given) , thanks.
> 100 µM

Which TGI value is on record for O=C(/C=C/c1c(O)c2ccccc2[nH]c1=O)CC(=O)C(=O)Nc1cccc(O)c1 ?
> 100 µM

So what does the record say about TGI for Cc1c(N(C(=O)c2cc(-c3cc(Cl)ccc3C(=O)N3Cc4ccccc4C[C@H]3CN3CCOCC3)n(C)c2C)c2ccc(O)cc2)cc(C#N)n1C ?
30.7 µM

Could you tell me which TGI is on file for CC1(C)C[C@H]2C3=CC[C@@H]4[C@@]5(C)CC[C@H](O)C(C)(C)[C@@H]5CC[C@@]4(C)[C@]3(C)C[C@@H](O)[C@@]23C[C@@H]1OC3=O ?
> 100 µM

Which TGI value belongs to N#Cc1c(C(N)=O)ncn1Cc1ccccc1 ?
> 100 µM

---

# System: MOLT-4 leukemia
# PROTOCOL NOTES: NCI tumour cell line growth inhibition, 48 h; in the data active = GI50 below about 0.43 µM; inactive = the rest
Pick from active, inactive when you respond.

Called result for CCC[C@H](Nc1nc(-c2ccc(NC(=O)NCC)c(OC)c2)ncc1C)c1cccnc1
active

Hi, sorry to bother you, what did the test record for C=C1C(=O)O[C@H]2[C@H]1CC/C(Cn1cc(Cn3ccc4cc(Cl)ccc43)nn1)=C\CC[C@@]1(C)O[C@@H]21 ?
inactive

How did this test come out for CC(=O)[CH-]C(C)=O.CC(=O)[CH-]C(C)=O.CC(=O)[CH-]C(C)=O.[Cl-].[Hf+4] ?
inactive

What call does the record list for O=S(=O)(NCCNc1cc(-c2cn(-c3ccccc3)nc2-c2cccc(O)c2)ccn1)c1ccc(F)cc1 ?
inactive

---

# System: SNB-75 CNS
# PROTOCOL NOTES: NCI tumour cell line growth inhibition, 48 h
The threshold is inclusive: TGI of exactly 60 µM counts as T; values below receive F.

Hello, I need to know if O=C1CCC(NC(=O)Cc2ccc(O)cc2)C(=O)N1 (stereo not given) has measured TGI not below 60 µM. Thanks!
T

Hi team, for O=C(/C=C/c1ccc2c(c1)OCO2)c1ccccc1 , is the recorded TGI at or above 60 µM?
T

// inclusive: TGI at least 60 µM? input: CC1(C)C[C@H]2C3=CC[C@@H]4[C@@]5(C)CC[C@H](O)C(C)(C)[C@@H]5CC[C@@]4(C)[C@]3(C)C[C@@H](O)[C@@]23C[C@@H]1OC3=O
T

Please tell me: is the compound OC1C=C2C3CN(Cc4cc5c(cc43)OCO5)[C@H]2C[C@@H]1O (stereo not given in full) at or over 60 µM in terms of TGI?
F

Check if TGI >= 60 µM (inclusive). Item: CCN(CC)/C(=C\Cl)Nc1ccccn1
T

Form field: TGI at least 60 µM? Entry: CNC(=O)c1ccc(Nc2nc(OC3CCCC3)c3c(-c4ccc5nc(C)oc5c4)c[nH]c3n2)c(OC)c1
T

Answer whether TGI of COc1ccc(OC)c2sc(N3C(=O)/C(=C/c4ccccc4S)N=C3c3ccccc3)nc12 is greater than or equal to 60 µM.
F

Does TGI meet or surpass 60 µM for CC(C)C1=CC(=O)C(C)(C2=NC(C)(C)CO2)c2ccccc21 (stereo not given) ?
T

Assess whether reported TGI for N#Cc1c(N)nc(N2CCOCC2)c(C#N)c1-c1cccc(O)c1 sits at 60 µM or higher.
T

I'd appreciate it if you could say whether C[C@@H](Oc1cc(-c2cnn(C3CC4(CCNCC4)C3)c2)cnc1N)c1c(F)ccc(Cl)c1Cl has TGI at least equal to 60 µM.
F

Can Clc1cccc(Cl)c1C1SCc2nc3cc4ccccc4cc3n21 (stereo not given) be said to have TGI at or above 60 µM?
T

Would you say Clc1ccc2c(Cl)ncnc2c1I shows TGI at minimum 60 µM?
T

Form field: TGI at least 60 µM? Entry: N#C/C(=C\c1ccc(Cl)cc1)n1nnc2cc(F)c(F)cc21
F

Decide: is the reported value of TGI for Cc1ccc(S(=O)(=O)Oc2coc(CO)cc2=O)cc1 equal to or greater than 60 µM?
F

Say whether C[N+]1(C)C2CCC1CC(OC(=O)C(CO)c1ccccc1)C2 (stereo not given) shows TGI of 60 µM or more.
T
